Field: neutralization IC50. Provide a value for each of the binders that follow.
- tgt: Env of HIV-1 strain X1254_c3 (HIV-1)
- experiment-description: cell-based or functional assay
Give bare numbers, in µg/mL.

8ANC3044 (antibody, V domains shown) VH: QIHLVQSGTEVRKPGSSVTVSCKAYGVNTFGLYAVNWVRQAPGQSLEYIGQIWRWKSSASHHFRGRVLISAVDLTGSSPPISSLEIKNLTSDDTAVYFCTTTSTYDKWSGLHHDGVMAFSSWGQGTLISVSA VL: DIQMTQSPSTLSASIGDTVRISCRASQSITGNWVAWYQQRPGKAPRLLIYRGAALLGGVPSRFSGSAAGTDFTLTIGNLQTEDFGTFYCQQYDTYPGTFGQGTKVEVKR = 4.54

Query: I have this binder here, γ4κ3 (antibody, V domains shown) VH: QIHLVQSGTEVKKPGSSVTVSCKAYGVNTFGLYAVNWVRQAPGQSLEYIGQIWRWKSSASHHFRGRVIISAVDLTGSSPPISPLEIKNLTSDDTAVYFCTTTSTSDRWSGLHHDGVMAFSSWGQGTLISVSA VL: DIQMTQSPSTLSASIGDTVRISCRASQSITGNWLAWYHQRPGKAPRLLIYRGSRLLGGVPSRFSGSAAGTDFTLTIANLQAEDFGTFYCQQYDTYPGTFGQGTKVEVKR , and I need its recorded neutralization IC50.
Response: 18
